Molecular target: Serine/threonine-protein kinase PAK 5 (Homo sapiens) (UniProt Q9P286);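 note: values are mean percent inhibition of PAK5 from a kinase inhibitor set screen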
Sequence (Q9P286 whole entry, looked up): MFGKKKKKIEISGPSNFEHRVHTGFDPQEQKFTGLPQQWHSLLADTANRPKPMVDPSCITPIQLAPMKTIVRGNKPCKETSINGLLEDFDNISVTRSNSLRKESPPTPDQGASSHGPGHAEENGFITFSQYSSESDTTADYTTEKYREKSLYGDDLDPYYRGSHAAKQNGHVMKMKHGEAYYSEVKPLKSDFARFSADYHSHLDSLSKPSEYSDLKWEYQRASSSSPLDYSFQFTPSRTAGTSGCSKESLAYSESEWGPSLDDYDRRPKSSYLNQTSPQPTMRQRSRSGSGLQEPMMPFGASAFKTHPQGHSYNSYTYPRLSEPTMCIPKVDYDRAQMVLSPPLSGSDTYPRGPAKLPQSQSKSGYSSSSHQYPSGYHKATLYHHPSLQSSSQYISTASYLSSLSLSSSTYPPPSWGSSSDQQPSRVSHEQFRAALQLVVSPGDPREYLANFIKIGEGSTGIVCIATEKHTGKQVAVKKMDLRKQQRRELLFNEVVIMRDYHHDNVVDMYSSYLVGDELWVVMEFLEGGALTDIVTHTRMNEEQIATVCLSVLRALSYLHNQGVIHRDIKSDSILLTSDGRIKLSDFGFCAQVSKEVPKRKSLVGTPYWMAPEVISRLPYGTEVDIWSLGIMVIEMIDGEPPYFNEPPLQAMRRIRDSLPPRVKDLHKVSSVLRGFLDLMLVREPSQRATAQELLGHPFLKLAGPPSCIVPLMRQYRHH
Conditions: at 0.1 µM
Please go through the items and note down their inhibition.
Entry format: amount then unit.

Any idea what inhibition came out for `c1cnn2ncc(-c3ccnc(Nc4ccc5c(c4)OCCO5)n3)c2c1` on Serine/threonine-protein kinase PAK 5 (Homo sapiens) (UniProt Q9P286)?
8.91%

Any idea what inhibition came out for `Cc1cc(O)cc(C)c1/C=C/c1cncc(-c2nn[nH]n2)c1` on Serine/threonine-protein kinase PAK 5 (Homo sapiens) (UniProt Q9P286)?
1.47%

Any idea what inhibition came out for `Nc1ncnc2occ(-c3ccc(NC(=O)Nc4cc(C(F)(F)F)cc(C(F)(F)F)c4)cc3)c12` on Serine/threonine-protein kinase PAK 5 (Homo sapiens) (UniProt Q9P286)?
1.39%

Any idea what inhibition came out for `CS(=O)(=O)CCNCc1nc(-c2ccc3ncnc(Nc4ccc(F)c(Cl)c4)c3c2)cs1` on Serine/threonine-protein kinase PAK 5 (Homo sapiens) (UniProt Q9P286)?
2.01%

###

Please go through the items and note down their inhibition.
Target: Serine/threonine-protein kinase Chk2 (Homo sapiens) (UniProt O96017)
Sequence (O96017 whole entry): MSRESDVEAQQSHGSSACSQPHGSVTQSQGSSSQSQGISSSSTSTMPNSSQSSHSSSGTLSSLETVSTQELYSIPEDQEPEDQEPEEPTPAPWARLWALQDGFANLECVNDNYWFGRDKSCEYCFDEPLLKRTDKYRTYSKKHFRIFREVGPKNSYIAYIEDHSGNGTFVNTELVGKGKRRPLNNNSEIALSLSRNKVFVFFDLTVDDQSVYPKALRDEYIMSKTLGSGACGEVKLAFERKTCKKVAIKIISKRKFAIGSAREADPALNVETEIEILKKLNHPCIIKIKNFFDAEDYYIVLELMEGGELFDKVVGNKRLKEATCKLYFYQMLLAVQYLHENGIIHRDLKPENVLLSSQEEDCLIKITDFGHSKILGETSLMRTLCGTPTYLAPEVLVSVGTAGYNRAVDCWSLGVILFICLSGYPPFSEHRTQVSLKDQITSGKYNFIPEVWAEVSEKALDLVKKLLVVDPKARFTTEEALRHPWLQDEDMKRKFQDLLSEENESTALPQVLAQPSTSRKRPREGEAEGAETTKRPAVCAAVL
Conditions: at 0.1 µM
Description: GSK_PKIS: CHEK2 mean inhibition at 0.1 uM [Nanosyn]
Lab book: enter the figure in %, no units written.

What measured inhibition goes with CC1=C(C(=O)Nc2ccc3[nH]ncc3c2)C(c2ccc(F)cc2)NC(=O)N1 (stereo not given) ?
1.2

What measured inhibition goes with `Nc1nc(-c2ccccn2)c(-c2ccc3ncccc3n2)s1` ?
2.16

What measured inhibition goes with `O=C1Nc2ccc(C(=O)c3ccco3)cc2C1=Cc1cc(Cl)c(O)c(Cl)c1` ?
2.67

What measured inhibition goes with `COc1cc(C)c(NC(=O)CN(C)C)cc1Nc1nc(Nc2cccc(F)c2C(N)=O)c2cc[nH]c2n1` ?
40.2

What measured inhibition goes with `Cc1nnc(-c2ccc(C)c(-c3ccc(C(=O)Nc4cccc(C#N)c4)cc3)c2)o1` ?
1.03

What measured inhibition goes with `N#Cc1c(NC(=O)c2cccc3ccccc23)sc2c1CCCC2` ?
6.18

What measured inhibition goes with `COC(=O)Nc1nc2cc(Oc3cccc(NC(=O)Nc4cc(C(F)(F)F)ccc4F)c3)ccc2[nH]1` ?
-0.85

What measured inhibition goes with `O=C1NC(=O)C(c2ccc(Cl)cc2)=C1Nc1ccc(Cl)c(C(=O)O)c1` ?
-2

What measured inhibition goes with `Cc1cccc(-c2n[nH]cc2-c2ccc3ncccc3n2)n1` ?
-0.67

What measured inhibition goes with `Nc1ncnc2occ(-c3ccc(NC(=O)Nc4cc(C(F)(F)F)cc(C(F)(F)F)c4)cc3)c12` ?
1.45

###

Molecular target: Vascular endothelial growth factor receptor 3 (Homo sapiens) (UniProt P35916)
Sequence (P35916 whole entry): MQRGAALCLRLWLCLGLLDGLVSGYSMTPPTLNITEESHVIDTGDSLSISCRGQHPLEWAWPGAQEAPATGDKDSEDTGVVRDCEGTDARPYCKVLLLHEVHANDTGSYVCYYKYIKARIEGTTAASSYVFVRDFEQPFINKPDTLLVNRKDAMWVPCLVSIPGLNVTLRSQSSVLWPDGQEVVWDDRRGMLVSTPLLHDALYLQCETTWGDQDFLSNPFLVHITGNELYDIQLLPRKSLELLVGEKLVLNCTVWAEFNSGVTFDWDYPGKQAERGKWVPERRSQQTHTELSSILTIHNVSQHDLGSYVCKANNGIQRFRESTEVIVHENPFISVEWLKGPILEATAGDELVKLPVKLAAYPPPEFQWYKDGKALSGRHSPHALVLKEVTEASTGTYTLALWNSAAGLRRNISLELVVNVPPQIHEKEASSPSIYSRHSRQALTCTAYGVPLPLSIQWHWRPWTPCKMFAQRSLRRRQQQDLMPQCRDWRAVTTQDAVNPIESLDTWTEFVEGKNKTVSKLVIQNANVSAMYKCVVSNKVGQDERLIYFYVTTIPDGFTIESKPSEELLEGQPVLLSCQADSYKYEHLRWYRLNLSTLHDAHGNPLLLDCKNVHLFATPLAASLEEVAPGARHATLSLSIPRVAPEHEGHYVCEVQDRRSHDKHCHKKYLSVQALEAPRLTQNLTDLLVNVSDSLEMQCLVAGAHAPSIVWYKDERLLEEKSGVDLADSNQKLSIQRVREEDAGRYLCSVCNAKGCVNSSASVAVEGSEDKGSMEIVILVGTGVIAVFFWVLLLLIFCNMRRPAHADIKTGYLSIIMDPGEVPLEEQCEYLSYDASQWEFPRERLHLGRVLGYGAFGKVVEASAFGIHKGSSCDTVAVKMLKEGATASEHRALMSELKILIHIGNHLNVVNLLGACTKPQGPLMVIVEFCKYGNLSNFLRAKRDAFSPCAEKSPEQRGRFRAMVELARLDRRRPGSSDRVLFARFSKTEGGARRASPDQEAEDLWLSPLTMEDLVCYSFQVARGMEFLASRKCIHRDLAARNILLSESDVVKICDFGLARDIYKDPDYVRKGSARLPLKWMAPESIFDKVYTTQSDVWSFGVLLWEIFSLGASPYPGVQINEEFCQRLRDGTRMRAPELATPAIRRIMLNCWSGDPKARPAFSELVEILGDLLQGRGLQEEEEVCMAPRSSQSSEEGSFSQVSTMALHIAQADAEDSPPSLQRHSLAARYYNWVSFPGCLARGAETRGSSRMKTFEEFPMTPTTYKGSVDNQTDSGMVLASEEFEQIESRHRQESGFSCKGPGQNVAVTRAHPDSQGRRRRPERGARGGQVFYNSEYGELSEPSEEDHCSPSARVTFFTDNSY
Settings: at 0.1 µM
Description: GSK_PKIS: FLT4 mean inhibition at 0.1 uM [Nanosyn]
Reported Endpoint: inhibition (%)
Lab book: enter the figure in %, no units written.

What measured inhibition goes with `CCn1c(-c2nonc2N)nc2ccncc21` ?
2.12

What measured inhibition goes with `CCn1c(-c2nonc2N)nc2cnc(Oc3cccc(NC(=O)c4ccc(OCCN5CCOCC5)cc4)c3)cc21` ?
-0.39

What measured inhibition goes with `O=C1NC(=O)C(c2cccc(Cl)c2)=C1Nc1ccc(O)c(Cl)c1` ?
1.15

What measured inhibition goes with `N#Cc1c(NC(=O)c2cccc3ccccc23)sc2c1CCCC2` ?
0.07

What measured inhibition goes with COc1ccc2cc(-c3c(-c4ccncc4)nc(-c4ccc([S+](C)[O-])cc4)n3C)ccc2c1 (stereo not given) ?
1.55

What measured inhibition goes with `Nc1nc(-c2ccc3c(c2)C(=Cc2cc(Br)c(O)c(Br)c2)C(=O)N3)cs1` ?
4.68

What measured inhibition goes with `O=C(Nc1n[nH]c2nc(-c3ccco3)c(Br)cc12)C1CC1` ?
1.95

What measured inhibition goes with `Nc1nc(-c2ccccn2)c(-c2ccc3ncccc3n2)s1` ?
1.06

What measured inhibition goes with `NC(=O)c1cccc(Nc2nccc(Nc3cccc4[nH]ncc34)n2)c1` ?
5.01

What measured inhibition goes with `[O-][S+]1CCN(Cc2ccc(-c3ccc4ncnc(Nc5ccc(OCc6ccccc6)c(F)c5)c4c3)o2)CC1` ?
-0.55

###

Target: Sphingosine kinase 1 (Homo sapiens) (UniProt Q9NYA1);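 note: mean percent inhibition of SPHK1 activity, measured within the GSK PKIS screening panel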
Sequence (Q9NYA1 whole entry): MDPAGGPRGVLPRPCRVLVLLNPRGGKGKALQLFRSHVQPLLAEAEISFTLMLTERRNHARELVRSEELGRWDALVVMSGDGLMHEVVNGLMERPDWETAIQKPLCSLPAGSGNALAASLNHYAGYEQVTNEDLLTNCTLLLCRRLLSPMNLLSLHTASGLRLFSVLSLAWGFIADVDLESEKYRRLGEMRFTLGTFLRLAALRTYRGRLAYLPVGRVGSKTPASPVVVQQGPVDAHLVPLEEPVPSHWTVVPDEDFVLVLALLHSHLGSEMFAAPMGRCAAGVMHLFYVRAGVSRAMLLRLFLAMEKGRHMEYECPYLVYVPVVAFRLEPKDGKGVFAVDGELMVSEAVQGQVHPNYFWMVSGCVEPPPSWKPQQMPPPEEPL
Details: at 0.1 µM
Please go through the items and note down their inhibition.
Lab book: enter the figure in %, no units written.

What measured inhibition goes with `CN(C)c1cc2c(Nc3ccc4nc(Cc5ccccc5)[nH]c4c3)ncnc2cn1` ?
-1.38

What measured inhibition goes with `O=C1NC(=O)C(c2ccccc2Cl)=C1Nc1cccc(O)c1` ?
-1.24

What measured inhibition goes with `c1cnn2ncc(-c3ccnc(Nc4ccc5c(c4)OCCO5)n3)c2c1` ?
1.6

What measured inhibition goes with `CCn1c(-c2nonc2N)nc2c(N3CCCC3)nccc21` ?
2.26

What measured inhibition goes with `CCCN1CCC=C(c2ccc(Nc3nc(Nc4ccccc4C(N)=O)c4cc[nH]c4n3)c(C)c2)C1` ?
0.57

What measured inhibition goes with `NS(=O)(=O)c1cccc(-c2ccc3c(NC(=O)C4CC4)n[nH]c3c2)c1` ?
0.58

What measured inhibition goes with `Cc1cc(O)cc(C)c1/C=C/c1cncc(-c2nn[nH]n2)c1` ?
0.56

What measured inhibition goes with `Cc1ccc(C(=O)NC2CCCCC2)cc1-c1ccc(C(=O)NCC2CC2)cc1` ?
-7.61

What measured inhibition goes with `NC(=O)c1cccc(Nc2nccc(Nc3cccc4[nH]ncc34)n2)c1` ?
-1.36

What measured inhibition goes with `O=C1NC(=O)C(c2cccc(Cl)c2)=C1Nc1ccc(O)c(Cl)c1` ?
1.58

What measured inhibition goes with `O=C1Nc2ccc(C(=O)c3ccco3)cc2C1=Cc1cc(Cl)c(O)c(Cl)c1` ?
7.33

###

Biological target: RAC-alpha serine/threonine-protein kinase (Homo sapiens) (UniProt P31749)
Sequence (P31749 whole entry): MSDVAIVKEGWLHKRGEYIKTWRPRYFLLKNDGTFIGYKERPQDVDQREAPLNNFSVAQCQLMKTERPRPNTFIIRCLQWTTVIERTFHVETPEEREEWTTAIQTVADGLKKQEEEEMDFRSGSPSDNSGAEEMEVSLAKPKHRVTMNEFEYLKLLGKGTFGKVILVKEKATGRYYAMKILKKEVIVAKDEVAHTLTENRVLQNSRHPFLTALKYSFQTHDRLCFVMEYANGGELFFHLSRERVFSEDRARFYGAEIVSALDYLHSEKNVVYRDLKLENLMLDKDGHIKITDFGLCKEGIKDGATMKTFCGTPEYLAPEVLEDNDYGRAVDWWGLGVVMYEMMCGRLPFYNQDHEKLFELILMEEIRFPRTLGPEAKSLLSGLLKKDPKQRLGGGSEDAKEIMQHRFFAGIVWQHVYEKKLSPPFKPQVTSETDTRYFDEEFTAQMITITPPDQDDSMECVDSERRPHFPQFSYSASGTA
Conditions: at 1 µM
Description: GSK_PKIS: AKT1 mean inhibition at 1 uM [Nanosyn]
Please go through the items and note down their inhibition.
Lab book: enter the figure in %, no units written.

What measured inhibition goes with CC1=C(C(=O)Nc2ccc3[nH]ncc3c2)C(c2ccc3ccccc3c2)CC(=O)N1 (stereo unspecified) ?
0.98

What measured inhibition goes with `O=C1NC(=O)C(c2ccccc2Cl)=C1Nc1cccc(O)c1` ?
1.06

What measured inhibition goes with `NS(=O)(=O)c1ccc(N/N=C2\C(=O)Nc3ccc(C(=O)NCCc4c[nH]cn4)cc32)cc1` ?
0.74

What measured inhibition goes with `Cc1ccc(NC(=O)c2ccnc(N3CCCC3)c2)cc1-c1ccc(C(=O)NCC2CC2)cc1` ?
-3.57

What measured inhibition goes with COc1ccc2cc(-c3c(-c4ccncc4)nc(-c4ccc([S+](C)[O-])cc4)n3C)ccc2c1 (stereo unspecified) ?
0.09

What measured inhibition goes with `Cc1ccc(C(=O)NC2CCCCC2)cc1-c1ccc(C(=O)NCC2CC2)cc1` ?
0.76

What measured inhibition goes with `O=C1NC(=O)C(c2cccc(Cl)c2)=C1Nc1ccc(O)c(Cl)c1` ?
1.25

What measured inhibition goes with `N#Cc1c(NC(=O)c2cccc3ccccc23)sc2c1CCCC2` ?
0.48

What measured inhibition goes with `COc1cc(C=NNc2ncnc3c2cnn3-c2ccccc2)ccc1O` ?
-1.12

What measured inhibition goes with `CCCN1CCC=C(c2ccc(Nc3nc(Nc4ccccc4C(N)=O)c4cc[nH]c4n3)c(C)c2)C1` ?
1.22

What measured inhibition goes with `CCc1cccc(NC(=O)Nc2ccc(Oc3ccc4nc(NC(=O)OC)[nH]c4c3)cc2)c1` ?
0.06

What measured inhibition goes with `CCn1c(-c2nonc2N)nc2c(N3CCCC3)nccc21` ?
-2.19

What measured inhibition goes with `CS(=O)(=O)CCNCc1nc(-c2ccc3ncnc(Nc4ccc(F)c(Cl)c4)c3c2)cs1` ?
-0.01

What measured inhibition goes with `CC(C)=Cc1cccc2c1/C(=N/Nc1ccc(S(N)(=O)=O)cc1)C(=O)N2` ?
0.65

What measured inhibition goes with `COc1ccc(-c2ccncc2)cc1C(N)=O` ?
-0.34

What measured inhibition goes with `Fc1cccc(COc2ccc(Nc3ncnc4sc(-c5cccs5)cc34)cc2Cl)c1` ?
-0.67

What measured inhibition goes with `COc1ccc(-c2coc3ncnc(N)c23)cc1` ?
0.76

What measured inhibition goes with `c1cnn2ncc(-c3ccnc(Nc4ccc5c(c4)OCCO5)n3)c2c1` ?
0.95

What measured inhibition goes with `COc1cc(C)c(NC(=O)CN(C)C)cc1Nc1nc(Nc2cccc(F)c2C(N)=O)c2cc[nH]c2n1` ?
0.96

What measured inhibition goes with `CCn1c(-c2nonc2N)nc2cncc(C(=O)N3CCNCC3)c21` ?
2.57

What measured inhibition goes with `Nc1ncnc2occ(-c3ccc(NC(=O)Nc4cccc(C(F)(F)F)c4)cc3)c12` ?
0.96

What measured inhibition goes with `CN1CCC(C(=O)Nc2n[nH]c3nnc(-c4ccccc4)cc23)CC1` ?
0.53

What measured inhibition goes with `COc1ccc(COc2ccc(Cc3cnc(N)nc3N)cc2OC)cc1` ?
-0.15

What measured inhibition goes with `CC(=O)Nc1cccc(C#Cc2cncnc2Nc2ccc(OCc3cccc(F)c3)c(Cl)c2)n1` ?
0.42

What measured inhibition goes with `CS(=O)(=O)Nc1ccc(N/C=C2\C(=O)Nc3ccccc32)cc1` ?
-2.1

What measured inhibition goes with `CCn1c(-c2nonc2N)nc2cncc(C(=O)N3CC[C@H](N)C3)c21` ?
19.5

What measured inhibition goes with `CNC(=O)c1cncc(/C=C/c2c(Cl)cccc2Cl)c1` ?
-2.11

What measured inhibition goes with `Cc1nn(C)c2cc(N(C)c3ccnc(Nc4cccc(S(N)(=O)=O)c4)n3)ccc12` ?
0.23

What measured inhibition goes with `Cc1cc(O)cc(C)c1/C=C/c1cncc(-c2nn[nH]n2)c1` ?
-4.1

What measured inhibition goes with `Cn1cc(C=C2C(=O)Nc3cccnc32)c2ccccc21` ?
0.22

What measured inhibition goes with `COc1cc2ncn(-c3cc(O[C@@H](C)c4ccccc4Cl)c(C(N)=O)s3)c2cc1OC` ?
1.3

What measured inhibition goes with `NCc1ccc(-c2nc(-c3ccc(Cl)c(O)c3)c(-c3ccncc3)[nH]2)cc1` ?
0.47

What measured inhibition goes with `CS(=O)(=O)CCNCc1ccc(-c2ccc3ncnc(Nc4ccc(OCc5cccc(F)c5)c(C(F)(F)F)c4)c3c2)o1` ?
0.54

What measured inhibition goes with `Cc1nnc(-c2ccc(C)c(-c3ccc(C(=O)Nc4cccc(C#N)c4)cc3)c2)o1` ?
0.29

What measured inhibition goes with `Nc1nc(-c2ccc3c(c2)C(=Cc2cc(Br)c(O)c(Br)c2)C(=O)N3)cs1` ?
-1.22

What measured inhibition goes with `[O-][S+]1CCN(Cc2ccc(-c3ccc4ncnc(Nc5ccc(OCc6ccccc6)c(F)c5)c4c3)o2)CC1` ?
-0.19
